assay: in vitro
recorded_conditions: mouse, cell viability (Muse Cell Analyser), single replicates
measured_attribute: viability at 24 h, 0.1 µM (%)
Respond with the bare value in %.

For N=C(N)NCCCC[C@H](N)C(=O)NCCCC[C@@H](N)C(=O)NCc1cn(Cc2cn([C@@H](CCCNC(=N)N)C(=O)O)nn2)nn1 [Compound 4, D-Lys(Har)-GlyΨ[Trl]GlyΨ[Trl]Arg] the compound record lists viability at 24 h, 0.1 µM as 99.4
